# experiment-summary: antivirals protecting cells from dengue CPE – CPE readout, HTS (AID 540333)
# experimental-context: Dengue virus CPE inhibition in host cells, at 20 µM
Out of some 10,000 compounds screened, about 320 (3.2%) were called active. Cut-off read from the data, not from the text of the source: active = CPE inhibition mostly above about 9.1% (no sharp cut-off); inactive = mostly below about 7.2%. Many of the other results were omitted from the sample, so actives are more common in it than they were.
Classes used: active, inactive

molecule | label-class
COc1cc(/C=N/NC(=O)C2COc3ccccc3O2)cc(OC)c1OC (stereo unspecified) | inactive
COc1ccc(CN2C(=O)/C(=C/c3ccncc3)SC2=S)cc1 | inactive
COc1ccc(COc2cc(-c3cccc(OC)c3)nc3ccc(NC(=O)c4ccc(Cl)cc4)cc23)cc1 | inactive
COc1ccc(NC(=O)c2ccc(C#N)cc2)cc1NS(=O)(=O)c1ccc(F)cc1 | inactive
Cc1ccc(S(=O)(=O)c2cc(OC(=O)c3ccco3)ccc2OC(=O)c2ccco2)cc1 | inactive
COC(=O)c1c(NC(=O)C2C3CCC(O3)C2C(=O)O)sc2c1CCCCCC2 (stereo unspecified) | inactive
CCn1cc(/C=C/C(=O)Nc2ccn(Cc3c(F)c(F)cc(F)c3F)n2)cn1 | inactive
O=C(NC(Cc1c[nH]c2ccccc12)C(=O)OCC(=O)c1cccc2ccccc12)c1cccs1 (stereo unspecified) | inactive
CCC(=O)NC(Nc1nc(C)cs1)(C(=O)OC)C(F)(F)F (stereo unspecified) | inactive
COc1ccc(NC(=S)N2CCN(C(c3ccccc3)c3ccccc3)CC2)cc1OC | inactive
O=C(NCCc1nc2ccccc2[nH]1)/C(=C/c1ccc2c(c1)OCO2)NC(=O)c1ccccc1 | inactive
Cc1ccc(-c2nc(N)sc2CC(=O)OCC(=O)NCC2CCCO2)cc1 (stereo unspecified) | inactive
CN(c1ccccc1)S(=O)(=O)c1cccc(NC(=O)CSc2nncn2C)c1 | inactive
CN(c1ccccc1)S(=O)(=O)c1cccc(NC(=O)CSc2ncc(C(F)(F)F)cc2Cl)c1 | active
NS(=O)(=O)c1cccc(NC(=O)CSc2ncc(C(F)(F)F)cc2Cl)c1 | inactive
O=C(COC(=O)CC(c1ccccc1)c1ccccc1)Nc1cccc(F)c1 | inactive
Cc1ccc([N+](=O)[O-])cc1S(=O)(=O)NCCc1c(C)[nH]c2ccccc12 | inactive
N/C(=N\OC(=O)Cc1ccccc1[N+](=O)[O-])c1ccncc1 | inactive
COC(=O)C1=NN[C@H](C(=O)OC(C)(C)C)[C@H]1c1ccccc1 | inactive
O=C(COC(=O)CNS(=O)(=O)c1cccc(Br)c1)Nc1ccccc1Sc1ccccc1 | inactive
CC(C)c1ccc(NCCC(=O)c2ccc(Br)cc2)cc1 | inactive
